testName: Pharmacokinetic analysis after ip administration in mice
Assay type: in vivo
assayConditions: Swiss Webster, mouse, liver and spleen (versus plasma), ip, 10 mg/kg
Property: Kp; scope: individual molecules
measurementLabel: Kp

> print(dat)
                    compoundstructurestring  measurementlabel  resultvalue
1          CC(C)Nc1nc(NCc2ccccc2)nc2ccccc12                Kp    3.2 to 16
2  Clc1ccc(CNc2nc(NCc3ccccc3)c3ccccc3n2)cc1                Kp     20 to 21

* * *

testName: Pharmacokinetic analysis after ip administration in mice
Type: in vivo
assayConditions: Swiss Webster, mouse, spleen, ip, 10 mg/kg
measurementLabel: concentration at 4 h (µM)

> print(dat)
                    compoundstructurestring  unitofmeasure  resultvalue
1  Clc1ccc(CNc2nc(NCc3ccccc3)c3ccccc3n2)cc1             µM         26.6
2          CC(C)Nc1nc(NCc2ccccc2)nc2ccccc12             µM         16.5

Provenance of the data: paper PMC4536136
